Hey, just so you know, these numbers are from the DeepSol protein solubility set.

experimental-details: soluble on expression in E. coli; label from the status in PepcDB or PDB records
parameter-measured: soluble on expression in E. coli

>>> result_value("MEALKIALLGGGTVGSAFYNLVLERAEELSAFGVVPRFLGVLVRDPRKPRAIPQELLRAEPFDLLEADLVVEAMGGVEAPLRLVLPALEAGIPLITANKALLAEAWESLRPFAEEGLIYHEASVMAGTPALSFLETLRGSELLELHGILNGTTLYILQEMEKGRTYAEALLEAQRLGYAEADPTLDVEGIDAAHKLTLLARLLVDPGFPFAEVEAQGIARLTPEVLQKAEARGERVRLVASLFGEGGRWRAAVAPRRLPQDHPLARARGNALWVRARPLGEAFVTGPGAGGGATASGLFADLLRFLSGAPGHLPAPRARPPLEEGSPWPGVE")
"soluble"
>>> result_value("MSDTVEELVQRAKLAEQAERYDDMAAAMKKVTEQGQELSNEERNLLSVAYKNVVGARRSSWRVISSIEQKTEGSEKKQQLAKEYRVKVEQELNDICQDVLKLLDEFLIVKAGAAESKVFYLKMKGDYYRYLAEVASEDRAAVVEKSQKAYQEALDIAKDKMQPTHPIRLGLALNFSVFYYEILNTPEHACQLAKQAFDDAIAELDTLNEDSYKDSTLIMQLLRDNLTLWTSDVGAEDQEQEGNQEAGN")
"soluble"
